All figures here come from ChEMBL document CHEMBL5365440.

# experiment_summary: Aqueous solubility of the compound in PBS buffer at pH 7.4
# Format: physicochemical
measurement_label: log10 solubility (log10 of the value in µM)
Values reflect log10 of reported solubility (µM).

Cn1ccc(COC(=O)N[C@H]2CCc3c(C(=O)Nc4ccc(F)c(Cl)c4)ccc(F)c32)n1 :: 0.68
Cn1cnc(COC(=O)N[C@H]2CCc3c(C(=O)Nc4ccc(F)c(Cl)c4)ccc(F)c32)n1 :: 1.17
COCCCOC(=O)N[C@H]1CCc2c(C(=O)Nc3ccc(F)c(Cl)c3)ccc(F)c21 :: 0.48

O=C(N[C@H]1CCc2c(C(=O)Nc3ccc(F)c(Cl)c3)ccc(F)c21)OCCO has a reported log10 solubility of 0.81

O=C(N[C@H]1CCc2c(C(=O)Nc3ccc(F)c(Cl)c3)ccc(F)c21)OCCn1ccnc1 has a reported log10 solubility of 1.23

CC(=O)NCCOC(=O)N[C@H]1CCc2c(C(=O)Nc3ccc(F)c(Cl)c3)ccc(F)c21 has a reported log10 solubility of 1.64

O=C(N[C@H]1CCc2c(C(=O)Nc3ccc(F)c(Cl)c3)ccc(F)c21)OCc1ncccn1 has a reported log10 solubility of 0.65

COCCOC(=O)N[C@H]1CCc2c(C(=O)Nc3ccc(F)c(Cl)c3)ccc(F)c21 has a reported log10 solubility of 0.45

Cn1nccc1COC(=O)N[C@H]1CCc2c(C(=O)Nc3ccc(F)c(Cl)c3)ccc(F)c21 has a reported log10 solubility of 0.96

O=C(N[C@H]1CCc2c(C(=O)Nc3ccc(F)c(Cl)c3)ccc(F)c21)OCc1nc[nH]n1 has a reported log10 solubility of 0.79

O=C(N[C@H]1CCc2c(C(=O)Nc3ccc(F)c(Cl)c3)ccc(F)c21)OCc1ccncn1 has a reported log10 solubility of 0.88

----------
# experiment_summary: Clearance in dog at 2 mg/kg,iv
# Format: ADME, organism-based, Canis lupus familiaris
# condition_notes: in vivo
measurement_label: clearance (mL/min/kg)
Expressed in mL/min/kg, but write only the number.

Cn1cnc(COC(=O)N[C@H]2CCc3c(C(=O)Nc4ccc(F)c(Cl)c4)ccc(F)c32)n1 has a reported clearance of 1.25

----------
# experiment_summary: Cmax in rat at 10 mg/kg,po
# Type: ADME, organism-based
# Parameters: dose 10 mg/kg, route po
# condition_notes: in vivo
measurement_label: Cmax (ng/mL)
Expressed in ng/mL, but write only the number.

Cn1cnc(COC(=O)N[C@H]2CCc3c(C(=O)Nc4ccc(F)c(Cl)c4)ccc(F)c32)n1 has a reported Cmax of 2850

----------
# experiment_summary: Cmax in CD-1 mouse at 10 mg/kg,po
# Assay type: ADME, organism-based
# Parameters: dose 10 mg/kg, route po
# condition_notes: in vivo
measurement_label: Cmax (ng/mL)
Expressed in ng/mL, but write only the number.

O=C(N[C@H]1CCc2c(C(=O)Nc3ccc(F)c(Cl)c3)ccc(F)c21)OCc1ccccn1 :: 695

Now consider a different molecule.
Cn1ccc(COC(=O)N[C@H]2CCc3c(C(=O)Nc4ccc(F)c(Cl)c4)ccc(F)c32)n1 has a reported Cmax of 913

----------
Below is a list of entries, each paired with its recorded CC50 at 48 h value.
# experiment_summary: Cytotoxicity against human HepDE19 cells incubated for 48 hrs by cell titer-glo luminescent based cell viability assay
# Assay type: toxicity

COC(=O)N[C@H]1CCOc2c(C(=O)Nc3ccc(F)c(F)c3)c(F)cc(F)c21 :: > 25 µM
COC(=O)N[C@H]1CCOc2c1ccc(F)c2C(=O)Nc1ccc(F)c(F)c1 :: > 25 µM
COC(=O)N[C@H]1CCOc2c(C(=O)Nc3ccc(F)c(Cl)c3)ccc(F)c21 :: > 25 µM
COC(=O)N[C@H]1CCOc2c1ccc(F)c2C(=O)Nc1ccc(F)c(Cl)c1 :: > 25 µM

Now consider a different compound.
COC(=O)N[C@H]1CCOc2c(C(=O)Nc3ccc(F)c(F)c3)cccc21 has a reported CC50 at 48 h of > 25 µM

----------
# experiment_summary: Half life in rat at 2 mg/kg,iv
# Assay type: ADME, organism-based
# condition_notes: in vivo
measurement_label: half-life (h)
Expressed in h, but write only the number.

Cn1cnc(COC(=O)N[C@H]2CCc3c(C(=O)Nc4ccc(F)c(Cl)c4)ccc(F)c32)n1 has a reported half-life of 3.2

----------
# target_system: Cytochrome P450 2C19 (Homo sapiens, UniProt P33261)
# Sequence (P33261 whole entry): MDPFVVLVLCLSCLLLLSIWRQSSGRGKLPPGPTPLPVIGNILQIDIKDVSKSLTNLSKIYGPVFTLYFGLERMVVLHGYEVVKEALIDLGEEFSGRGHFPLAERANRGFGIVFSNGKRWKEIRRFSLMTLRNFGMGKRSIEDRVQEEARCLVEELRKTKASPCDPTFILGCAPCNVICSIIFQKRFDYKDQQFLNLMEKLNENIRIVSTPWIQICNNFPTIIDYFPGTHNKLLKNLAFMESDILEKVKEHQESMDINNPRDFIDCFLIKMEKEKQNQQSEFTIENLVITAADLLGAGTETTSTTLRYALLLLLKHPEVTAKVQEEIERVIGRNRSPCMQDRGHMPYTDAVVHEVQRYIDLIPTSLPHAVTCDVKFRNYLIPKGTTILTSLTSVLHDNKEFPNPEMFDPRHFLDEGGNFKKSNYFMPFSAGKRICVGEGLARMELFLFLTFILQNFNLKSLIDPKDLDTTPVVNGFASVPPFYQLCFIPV
measurement_label: IC50

# lookup: Cn1cnc(COC(=O)N[C@H]2CCc3c(C(=O)Nc4ccc(F)c(Cl)c4)ccc(F)c32)n1 on Cytochrome P450 2C19 (Homo sapiens, UniProt P33261), IC50 = > 20 µM

----------
# experiment_summary: Half life in dog at 2 mg/kg,iv
# Type: ADME, organism-based, Canis lupus familiaris
# condition_notes: in vivo
measurement_label: half-life
Could you give the number and then its unit, please?

Cn1cnc(COC(=O)N[C@H]2CCc3c(C(=O)Nc4ccc(F)c(Cl)c4)ccc(F)c32)n1 has a reported half-life of 11.4 h

----------
# experiment_summary: Microsomal stability in human liver microsomes assessed as intrinsic clearance
# Assay type: ADME, Microsome
# condition_notes: read-out: CLH
Please mark 1 if the recorded microsomal CLint is equal to or greater than 5 µL/min/mg, and -1 if it falls below.

O=C(N[C@H]1CCc2c(C(=O)Nc3ccc(F)c(Cl)c3)ccc(F)c21)OCc1ncccn1 :: -1
Cn1nccc1COC(=O)N[C@H]1CCc2c(C(=O)Nc3ccc(F)c(Cl)c3)ccc(F)c21 :: 1

Decide: is the reported value of microsomal CLint for O=C(N[C@H]1CCc2c(C(=O)Nc3ccc(F)c(Cl)c3)ccc(F)c21)OCc1nc[nH]n1 equal to or greater than 5 µL/min/mg?
-1

Decide: is the reported value of microsomal CLint for COC(=O)N[C@H]1CCCc2c(C(=O)Nc3ccc(F)c(F)c3)cccc21 equal to or greater than 5 µL/min/mg?
-1

Decide: is the reported value of microsomal CLint for COCCOC(=O)N[C@H]1CCc2c(C(=O)Nc3ccc(F)c(Cl)c3)ccc(F)c21 equal to or greater than 5 µL/min/mg?
1

Decide: is the reported value of microsomal CLint for Cn1ccnc1COC(=O)N[C@H]1CCc2c(C(=O)Nc3ccc(F)c(Cl)c3)ccc(F)c21 equal to or greater than 5 µL/min/mg?
1

Decide: is the reported value of microsomal CLint for O=C(N[C@H]1CCc2c(C(=O)Nc3ccc(F)c(Cl)c3)ccc(F)c21)OCc1ncco1 equal to or greater than 5 µL/min/mg?
1

----------
# experiment_summary: Cmax in dog at 10 mg/kg,po
# Assay type: ADME, organism-based, Canis lupus familiaris
# Set-up: dose 10 mg/kg, route po
# condition_notes: in vivo
measurement_label: Cmax (ng/mL)
Expressed in ng/mL, but write only the number.

Cn1cnc(COC(=O)N[C@H]2CCc3c(C(=O)Nc4ccc(F)c(Cl)c4)ccc(F)c32)n1 has a reported Cmax of 6820

----------
Below is a list of entries, each paired with its recorded microsomal CLint value.
# experiment_summary: Microsomal stability in mouse liver microsomes assessed as intrinsic clearance
# Assay type: ADME, Microsome
# condition_notes: read-out: CLH
Could you give the number and then its unit, please?

Sample answers from the record:
CC(=O)NCCOC(=O)N[C@H]1CCc2c(C(=O)Nc3ccc(F)c(Cl)c3)ccc(F)c21 :: 17 µL/min/mg
COC(=O)N[C@H]1CCCc2c(C(=O)Nc3ccc(F)c(F)c3)cccc21 :: 21 µL/min/mg
O=C(N[C@H]1CCc2c(C(=O)Nc3ccc(F)c(Cl)c3)ccc(F)c21)OCc1cnccn1 :: 18 µL/min/mg
COC(=O)N[C@H]1COc2c(C(=O)Nc3ccc(F)c(F)c3)cccc21 :: 41 µL/min/mg
O=C(N[C@H]1CCc2c(C(=O)Nc3ccc(F)c(Cl)c3)ccc(F)c21)OCc1cc[nH]n1 :: 17 µL/min/mg
Cn1ccc(COC(=O)N[C@H]2CCc3c(C(=O)Nc4ccc(F)c(Cl)c4)ccc(F)c32)n1 :: 23 µL/min/mg
O=C(N[C@H]1CCc2c(C(=O)Nc3ccc(F)c(Cl)c3)ccc(F)c21)OCc1nc[nH]n1 :: 9 µL/min/mg
COCCCOC(=O)N[C@H]1CCc2c(C(=O)Nc3ccc(F)c(Cl)c3)ccc(F)c21 :: 55 µL/min/mg
O=C(N[C@H]1CCc2c(C(=O)Nc3ccc(F)c(Cl)c3)ccc(F)c21)OCc1ncccn1 :: 17 µL/min/mg
COC(=O)N[C@H]1CCc2c(C(=O)Nc3ccc(F)c(F)c3)cccc21 :: 9.2 µL/min/mg

O=C(N[C@H]1CCc2c(C(=O)Nc3ccc(F)c(Cl)c3)ccc(F)c21)OCCn1ccnc1 has a reported microsomal CLint of 20 µL/min/mg

COC(=O)N[C@H]1CCc2c(C(=O)Nc3ccc(F)c(Cl)c3)ccc(F)c21 has a reported microsomal CLint of 9.2 µL/min/mg

O=C(N[C@H]1CCc2c(C(=O)Nc3ccc(F)c(Cl)c3)ccc(F)c21)OCc1ncco1 has a reported microsomal CLint of 23 µL/min/mg

O=C(N[C@H]1CCc2c(C(=O)Nc3ccc(F)c(Cl)c3)ccc(F)c21)OCCO has a reported microsomal CLint of 3 µL/min/mg

O=C(N[C@H]1CCc2c(C(=O)Nc3ccc(F)c(Cl)c3)ccc(F)c21)OCc1ccon1 has a reported microsomal CLint of 33 µL/min/mg

Cn1nccc1COC(=O)N[C@H]1CCc2c(C(=O)Nc3ccc(F)c(Cl)c3)ccc(F)c21 has a reported microsomal CLint of 25 µL/min/mg
